Test system: 855422-203-R-J1-PDC complex spheroid viability
Assay method text: Anticancer human tumor 855422-203-R-J1-PDC patient-derived bladder carcinoma cell line growth inhibition
Assay conditions: curve of first compound; second compound 0.1 µM
Reported endpoint: IC50

compound="CCN(c1cc(-c2ccc(CN3CCOCC3)cc2)cc(C(=O)NCc2c(C)cc(C)[nH]c2=O)c1C)C1CCOCC1 + NC1CCC(NC2CC2c2ccccc2)CC1" target_or_system="855422-203-R-J1-PDC complex spheroid viability" reported_endpoint=IC50 data_value="> 3 µM"
compound="O=C(c1cc(Cc2n[nH]c(=O)c3ccccc23)ccc1F)N1CCN(C(=O)C2CC2)CC1 + NC1CCC(NC2CC2c2ccccc2)CC1" target_or_system="855422-203-R-J1-PDC complex spheroid viability" reported_endpoint=IC50 data_value="> 10 µM"
compound="Cn1ncnc1C1c2n[nH]c(=O)c3cc(F)cc(c23)NC1c1ccc(F)cc1 (stereo not drawn) + NC1CCC(NC2CC2c2ccccc2)CC1" target_or_system="855422-203-R-J1-PDC complex spheroid viability" reported_endpoint=IC50 data_value="> 0.1 µM"

----------
Test system: 855422-203-R-J1-PDC complex spheroid viability
Assay method text: Anticancer human tumor 855422-203-R-J1-PDC cell line growth inhibition;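 note: drug exposure lasted 7 days starting on day 3 after seeding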;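 for viability, T/C: luminescence viability as percent of DMSO vehicle wells = 100%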
Assay conditions: second compound 3.16 µM; first compound 0.3 µM; stronger effect = lower value
Text: Multicellular complex tumor spheroid response to LSD1 Inhibitor Iadademstat in combination with a variety of drugs and investigational agents in selected tumor cell lines The current study was undertaken to assess response to LSD1 inhibitors in combination with standard-of-care drugs and investigational agents in solid tumor complex spheroid models as well as in the K-562 leukemia. […] Compounds. […] If the clinical Cmax for an agent had not been determined, the highest concentration tested was 10 microM. […]
Here, each record is paired with measured viability, T/C data.
Reported endpoint: viability, T/C

molecule="CCN(c1cc(-c2ccc(CN3CCOCC3)cc2)cc(C(=O)NCc2c(C)cc(C)[nH]c2=O)c1C)C1CCOCC1 + NC1CCC(NC2CC2c2ccccc2)CC1" reported_endpoint="viability, T/C" data_value=87.6%
molecule="Nc1ccccc1NC(=O)c1ccc(CNC(=O)OCc2cccnc2)cc1 + NC1CC1c1ccc(-c2cccc(O)c2)cc1" reported_endpoint="viability, T/C" data_value=90.2%
molecule="Nc1ncn(C2CC(O)C(CO)S2)c(=O)n1 (stereo not drawn) + NC1CCC(NC2CC2c2ccccc2)CC1" reported_endpoint="viability, T/C" data_value=73.4%

----------
Test system: 855422-203-R-J1-PDC complex spheroid viability
Assay method text: Anticancer human tumor 855422-203-R-J1-PDC cell line growth inhibition;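 note: drug exposure lasted 7 days starting on day 3 after seeding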
Assay conditions: curve of first compound; second compound 0.1 µM
pIC50: −log10 of the molar value.
Here, each record is paired with measured pIC50 data.
Reported endpoint: pIC50

molecule="CC[C@@]1(O)C(=O)OCc2c1cc1n(c2=O)Cc2cc3c(CN(C)C)c(O)ccc3nc2-1 + NC1CCC(NC2CC2c2ccccc2)CC1" reported_endpoint=pIC50 comparative_sign== data_value=8.13
molecule="Nc1ccccc1NC(=O)c1ccc(CNC(=O)OCc2cccnc2)cc1 + NC1CC1c1ccc(-c2cccc(O)c2)cc1" reported_endpoint=pIC50 comparative_sign== data_value=5.91
molecule="COc1cc(Nc2ncc3c(n2)-c2ccc(Cl)cc2C(c2c(F)cccc2OC)=NC3)ccc1C(=O)O + NC1CC1c1ccc(-c2cccc(O)c2)cc1" reported_endpoint=pIC50 comparative_sign== data_value=6.17
molecule="Cn1ncnc1C1c2n[nH]c(=O)c3cc(F)cc(c23)NC1c1ccc(F)cc1 (configuration not stated) + NC1CC1c1ccc(-c2cccc(O)c2)cc1" reported_endpoint=pIC50 comparative_sign=< data_value=7.00
molecule="Nc1ncn(C2CC(O)C(CO)S2)c(=O)n1 (configuration not stated) + NC1CC1c1ccc(-c2cccc(O)c2)cc1" reported_endpoint=pIC50 comparative_sign=< data_value=6.52
molecule="NS(=O)(=O)OCC1CC(n2ccc3c(NC4CCc5ccccc54)ncnc32)CC1O (configuration not stated) + NC1CC1c1ccc(-c2cccc(O)c2)cc1" reported_endpoint=pIC50 comparative_sign== data_value=6.10
molecule="CC[C@@]1(O)C(=O)OCc2c1cc1n(c2=O)Cc2cc3c(CN(C)C)c(O)ccc3nc2-1 + NC1CC1c1ccc(-c2cccc(O)c2)cc1" reported_endpoint=pIC50 comparative_sign== data_value=8.07
